Item-by-item account of fold change (FC)
targetOrTestSystem: Stimulator of interferon genes protein (Homo sapiens)
protocolText: Agonist activity at STING in human HepAD38 cell coexpressing ISG54luc assessed as fold in increase luciferase activity incubated for 4 hrs by steady-glo luciferase assay
Format: cell-based
conditionContext: filed as agonist

Answered cases to consult:
>  <compound>
O=C(Nc1cccc2ccccc12)c1ccc(Cl)cc1Cl

>  <observedValue>
28

$$$$
>  <compound>
Cc1cccc(NC(=O)c2cc(F)c(F)cc2Br)c1C

>  <observedValue>
7.8

$$$$

Please tell me: fold change (FC) of `Cc1cccc(NC(=O)c2cc3c(cc2Br)OCO3)c1Br` , system Stimulator of interferon genes protein (Homo sapiens)?
17.3

Next: O=C1C2CSC3(C(=O)c4ccccc4C3=O)N2C(=O)C2CSC3(C(=O)c4ccccc4C3=O)N12 (stereo not given)
140

Try this compound too: `O=C(Nc1cccc2ccccc12)c1cc2c(cc1Br)OCO2`
20.5

* * *

targetOrTestSystem: Stimulator of interferon genes protein (Homo sapiens, UniProt Q86WV6, G230A/R293Q/R71H)
Sequence (Q86WV6 whole entry R71H/G230A/R293Q, the tested form may be a part): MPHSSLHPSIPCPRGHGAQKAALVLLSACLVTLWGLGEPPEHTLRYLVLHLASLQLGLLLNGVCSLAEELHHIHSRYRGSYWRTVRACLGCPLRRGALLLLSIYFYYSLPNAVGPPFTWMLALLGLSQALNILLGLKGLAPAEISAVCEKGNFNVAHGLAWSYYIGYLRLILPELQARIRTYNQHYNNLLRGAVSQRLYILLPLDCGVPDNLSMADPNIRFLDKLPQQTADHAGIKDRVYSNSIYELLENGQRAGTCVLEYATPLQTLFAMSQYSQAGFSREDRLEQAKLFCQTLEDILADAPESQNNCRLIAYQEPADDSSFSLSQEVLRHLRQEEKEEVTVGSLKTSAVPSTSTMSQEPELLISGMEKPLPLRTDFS
protocolText: Agonist activity to C-terminal domain STING HAQ mutant (139 to 379 residues) in human PBMC assessed as IFN-beta secretion
metricName: EC50 (nM)
Expressed in nM, but write only the number.

What does the record list as EC50 for `CCn1nc(C)cc1C(=O)/N=c1\[nH]c2cc(C=O)cc(OCCCN3CCOCC3)c2n1CCCCn1c(NC(=O)c2cc(C)nn2CC)nc2cc(C(N)=O)cc(OC)c21` ?
190

* * *

targetOrTestSystem: Stimulator of interferon genes protein (Homo sapiens, UniProt Q86WV6)
Sequence (Q86WV6 whole entry, the tested form may be a part): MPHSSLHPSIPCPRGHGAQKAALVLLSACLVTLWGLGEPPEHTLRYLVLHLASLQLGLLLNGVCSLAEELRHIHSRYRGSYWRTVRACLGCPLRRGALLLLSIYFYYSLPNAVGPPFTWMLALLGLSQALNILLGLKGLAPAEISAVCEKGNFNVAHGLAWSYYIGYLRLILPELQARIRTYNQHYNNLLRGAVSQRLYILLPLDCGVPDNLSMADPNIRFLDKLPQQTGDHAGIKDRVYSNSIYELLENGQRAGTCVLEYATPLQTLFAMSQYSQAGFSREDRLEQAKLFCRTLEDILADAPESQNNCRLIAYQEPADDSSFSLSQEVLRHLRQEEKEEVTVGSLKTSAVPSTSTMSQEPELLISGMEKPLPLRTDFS
protocolText: Binding affinity to human STING (137 to 379 residues) assessed as dissociation constant by isothermal titration calorimetry assay
metricName: pKd
Convention used: pKd is expressed as -log10 of the molar concentration.

Bench note: what pKd did `COc1ccc2[nH]c3c(C)c(C)ccc3c(=O)c2c1` show?
4.58

* * *

targetOrTestSystem: Stimulator of interferon genes protein (Homo sapiens)
protocolText: Agonist activity at STING (unknown origin) in THP1-Blue ISG cells assessed as type I interferon production level
Type: cell-based
metricName: pEC50
Note on pEC50: it is the negative log10 of concentration, concentration in mol/L.

Checklist item: pEC50 tested on Stimulator of interferon genes protein (Homo sapiens), entry `Nc1ncnc2c1ncn2[C@H]1O[C@H]2COP(=O)(O)O[C@H]3[C@@H](O)[C@@H](n4cnc5c(N)ncnc54)O[C@@H]3COP(=O)(O)O[C@H]2[C@H]1O` , value?
7.29

* * *

targetOrTestSystem: Stimulator of interferon genes protein (Homo sapiens, UniProt Q86WV6)
protocolText: Agonist activity to C-terminal domain human STING (139 to 379 residues)
metricName: pIC50
Entry type: numeric. Quantity: pIC50, the -log10 of concentration in molar units.

Item `CCn1nc(C)cc1C(=O)Nc1nc2cc(C(N)=O)ccc2n1CCCCn1c(NC(=O)c2cc(C)nn2CC)nc2cc(C(N)=O)ccc21` has what recorded pIC50?
4.70

* * *

targetOrTestSystem: Stimulator of interferon genes protein, Mus musculus (UniProt Q3TBT3)
Sequence (Q3TBT3 whole entry, looked up): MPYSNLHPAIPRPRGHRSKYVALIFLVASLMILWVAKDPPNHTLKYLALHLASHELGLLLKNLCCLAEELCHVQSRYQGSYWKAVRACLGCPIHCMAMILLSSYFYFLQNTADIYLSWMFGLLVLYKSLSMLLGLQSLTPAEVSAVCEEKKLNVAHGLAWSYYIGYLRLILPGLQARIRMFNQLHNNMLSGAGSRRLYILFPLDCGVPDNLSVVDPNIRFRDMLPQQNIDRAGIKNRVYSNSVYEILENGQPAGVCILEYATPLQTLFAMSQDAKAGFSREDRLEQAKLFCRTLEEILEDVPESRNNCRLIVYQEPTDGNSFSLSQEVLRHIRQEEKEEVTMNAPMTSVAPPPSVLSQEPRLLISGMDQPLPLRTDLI
protocolText: Agonist activity at STING in mouse L929 cells assessed as IFN-beta RNA level measured after 4 hrs by qRT-PCR analysis
metricName: EC50
Respond with a number, then the unit of measure.

Fill in: EC50 of `Nc1nc2c(ncn2[C@H]2O[C@H]3COP(=O)(O)O[C@H]4[C@@H](O)[C@@H](n5cnc6c(=O)[nH]c(N)nc65)O[C@@H]4COP(=O)(O)O[C@H]3[C@H]2O)c(=O)[nH]1` is ___
538 nM
